methodDescription: qHTS for Inhibitors of human tyrosyl-DNA phosphodiesterase 1 (TDP1): qHTS in cells in absence of CPT; also: % is scaled to controls: 0 for no effect and ±100 for the full control effect; nearly all actives have a fitted effect of over 55% in size
conditionSet: DT40 Tdp1-/- hTDP1 cells, no CPT, ATP luminescence, 48 h; at 46.2 µM (top of the series) unless noted
Out of some 420,000 compounds screened, about 64,000 (15%) were called active. Inconclusive results (about 27%) are left out. Calls follow the shape of the dose curve; as a rule, active = well fitted inhibition curve with a large enough effect; inconclusive = small, poorly fitted or top-dose-only effect; inactive = flat fitted curve, though single readings scatter. Only a sample is shown.
Labels: class 1 (active), class 0 (inactive)

{"columns": ["compound", "classLabel"],
 "data": [
  ["CCCCCC(O)c1cccc(OCc2ccc3ccccc3n2)c1 (stereo not given)", "class 0"],
  ["CCCCC/C=C\\C/C=C\\CCCCCCCCCC(=O)O", "class 0"],
  ["CC(C)c1ccc(C2C(C(=O)c3ccco3)=C(O)C(=O)N2CC2CCCO2)cc1 (stereo not given)", "class 1"],
  ["C/C=C(\\C)C(=O)O[C@H]1CC(C)=C2C(=O)C=C(C)C2[C@@H]2OC(=O)[C@@](C)(OC(=O)C=C(C)C)C21 (stereo not given in full)", "class 0"],
  ["COc1ccc(/C=C2\\NC(=O)[C@@H]3Cc4ccccc4CN3C2=O)cc1", "class 0"]
]}

Cited source for all entries: PubChem BioAssay AID686978
